Test system: Target C
Assay: HiBiT protein abundance assay, Target C (K562 HiBiT knock-in cells)
Type: cell-based, human
Conditions: 24 hours treatment
In this section, each of the compounds is paired with its reported IC50.

Examples with their reported IC50 follow.
>>> measured("Cc1cn2cc(-c3cc4cn(C5CCNCC5)nc4s3)nc(C)c2n1 [Compound 228]")
"1 to 10 µM"
>>> measured("Cn1cc2cc(-c3cc4cn([C@@H]5CCNC[C@H]5F)nc4s3)cc(F)c2n1 [Compound 187]")
"0.1 to 1 µM"
>>> measured("COc1c(-c2cc3cn(C4CCNCC4)nc3s2)nn2cc(C)nc(C)c12 [Compound 219]")
"> 10 µM"

From here, focus on the item given below.
IN: I have this compound here, Cc1cc(-c2cc3cn(C4CCNCC4)nc3s2)cc2cn(C)nc12 [Compound 225] , and I need its recorded IC50.
OUT: < 0.1 µM
